QUANTITY: melting point

// query Would you mind telling me what melting point value was observed for Cc1ccc2c(c1)NC(=O)[C@H](N)C[C@@H]2C1CCCCC1 (relative stereo) ?
// result 64 to 66 °C

// query Quick one: CCOc1nn(-c2ccc(C(F)(F)F)cn2)cc1CCCOc1ccc(OC)cc1CC(=O)O
// result 138 to 139 °C

// query Quick one: O=C(Nc1cccc(Cl)c1C(=O)O)c1cccc(F)c1
// result 216 to 219 °C

// query Quick one: Cc1c(N)cccc1CO
// result 104 to 106 °C

// query Quick one: CCCCNC(=O)NC(=N)c1ccccc1
// result 139 to 141 °C

// query Quick one: COC(=O)Cc1cc(Cl)ccc1O
// result 84 to 85 °C

// query Quick one: CC(C)(CCCOc1cccc(C(F)(F)F)c1)C(=O)O
// result 96 to 97 °C

// query Quick one: CC(C)(Cc1ccc(Cl)cc1)C(=O)Cn1cncn1
// result 127 °C

// query Quick one: CCCNC(=O)CC=Cc1ccc2c(c1)c(Cc1ccc(C(=O)OC)cc1OC)cn2CCC
// result 140 to 142 °C

// query Quick one: O=C1OCc2c(-c3noc(C4CC4)n3)ncn2-c2ccccc21
// result 206 to 209 °C

// query Quick one: O=CNC1=CCc2ccccc21
// result 87.5 to 88.5 °C

// query Quick one: OC(c1ccc2noc(-c3cccc(Cl)c3)c2c1)c1nc(-c2ccccc2)cs1 (centres undefined)
// result 136 °C

// query Quick one: CN(C)Cc1ccc(CSCCNC2=NS(=O)(=O)N=C2N2CCCC2)o1
// result 151 to 152 °C

// query Quick one: CN=C(NS(=O)(=O)N1CCCCC1)C1=NN(c2ccc(Cl)cc2)C(c2ccccc2)C1 (centres undefined)
// result 141 to 144 °C

###

QUANTITY: melting point

// query Would you mind telling me what melting point value was observed for CCCCN(CCCC)c1cc(OC)c(C=Cc2ccc(C=O)s2)c(OC)c1 ?
// result 105 to 106 °C

// query Quick one: Cc1cc(O)ccc1Nc1nc(N)ncc1Oc1ccc(Cl)cc1
// result 199 to 201 °C

// query Quick one: c1ccc(Cc2cccnn2)cc1
// result 61 to 64 °C

// query Quick one: CCCCCCCCCCCCCCCCOCC(CO)COC(C)=O (stereo not drawn)
// result 33 °C

// query Quick one: CCOC(=O)NCCN1c2ccccc2N2CCc3cccc(c32)C1C (stereo not drawn)
// result 94 to 96 °C

// query Quick one: Cc1oc(-c2ccccc2)nc1CCc1noc(CCl)n1
// result 71 to 72 °C

// query Quick one: O=c1nc(-c2cccc(CN3CCN(c4ccc(F)cc4)CC3)n2)sc2ccccc12
// result 156 to 157 °C

// query Quick one: OCc1ccc(Br)nc1
// result 49 to 51 °C

// query Quick one: CNC(=O)[C@@H](C[C@H](O)[C@H](CC1CCCCC1)NC(=O)[C@H](Cc1cscn1)NC(=O)[C@@H](CC(=O)N1CCOCC1)Cc1ccccc1)C(C)(C)O
// result 150 to 152 °C

// query Quick one: COc1ccc2cc(C(C)C)ccc2c1
// result 63.5 to 64.5 °C

// query Quick one: COc1ccc(Cn2cnc(=O)c3[nH]c(C(C)C)nc32)cc1OCc1ccccc1
// result 233 to 235 °C

// query Quick one: COC(=O)[C@H](Cc1ccc(NC(=O)c2cc(C#N)ccc2Cl)cc1)NC(=O)OC(C)(C)C
// result 185 to 187 °C

// query Quick one: O=C(COC(=O)c1ccccc1Nc1ccnc2c(C(F)(F)F)cccc12)OC1CCN(Cc2ccccc2)CC1
// result 99 to 100 °C

// query Quick one: CCOc1ccc(C(=O)NC/C=C/c2ccccc2)cc1
// result 132 °C

// query Quick one: COc1cc(C)ccc1OC(=O)c1ccccc1
// result 73 to 75 °C

// query Quick one: COc1cc(C)c(C=CC(C)=CC=CC(=O)O)c(C)c1C
// result 189 to 191 °C

// query Quick one: N=C(Nc1ccccc1-c1ccc(F)cc1)N1CCC(O)CC1
// result 132 to 133 °C

// query Quick one: CCc1c(OC)cc(OC)c2c1C(=O)N(CSc1nnnn1-c1ccccc1)S2(=O)=O
// result 162 to 164 °C

// query Quick one: COc1ccc(C23CCCC2(c2ccc(OC)cc2)C3)cc1 (stereo not drawn)
// result 92 to 93 °C

// query Quick one: CCCC(=O)c1ccc(OC)c(C(=O)Cl)c1
// result 65 °C

// query Quick one: CCCCCCCCOc1ccc2c(OC(C)=O)c3cc4ccccc4cc3c(OC(C)=O)c2c1
// result 107 to 111 °C

// query Quick one: C=CC(=O)N1C(C)(C)CC(OC(=O)C(C#N)(Cc2cc(C(C)(C)C)c(O)c(C(C)(C)C)c2)Cc2cc(C(C)(C)C)c(O)c(C(C)(C)C)c2)CC1(C)C
// result 174 °C

// query Quick one: CCCCOc1ccc2c(c1)CCC(C(=O)OC)C2O (stereo not drawn)
// result 81 to 83 °C

// query Quick one: O=C(NCCCCCCNC(=O)Nc1cccnc1)Nc1cccnc1
// result 197 to 199 °C

// query Quick one: Nc1nc(O)c2c(CCCc3ccc(C(=O)N[C@@H](CCC(=O)O)C(=O)O)cc3)cnc-2[nH]1
// result 190 to 193 °C

// query Quick one: CC(C)c1cccc(C(C)C)c1NC(=O)CNC(c1ccccc1)c1cccs1 (stereo not drawn)
// result 164 to 166 °C

// query Quick one: COC(=O)c1cc2c3c(cc([N+](=O)[O-])c2[nH]1)N(C(=O)c1cc2cc(OC)c(OC)c(OC)c2[nH]1)CC3CCl (stereo not drawn)
// result 246 to 248 °C

// query Quick one: COc1ccc(C(=O)Nc2c(Cl)cncc2Cl)c2c1oc1ccc([N+](=O)[O-])cc12
// result 315 to 317 °C

// query Quick one: CC[C@H]1CN(c2ccc3c(=O)c(C(=O)O)cn([C@@H]4C[C@@H]4F)c3c2C)C[C@H]1N
// result 232 to 234 °C

// query Quick one: COc1ccc(CCCNS(=O)(=O)Cc2ccc3[nH]cc(CC#N)c3c2)cc1
// result 131 to 133 °C

// query Quick one: CC1(C)C=C(c2ccccn2)c2cc(F)c(F)cc2OC1
// result 86 °C

// query Quick one: COc1cc(CN2CCN(C(=O)c3ccc4c(c3)C(=O)C3(CC3)O4)CC2)cc(OC)c1OC
// result 196 to 198 °C

// query Quick one: O=Cc1ccc2c(=O)c3ccccc3ccc2c1
// result 149 to 152 °C
